- Measured target: Jen1p (Saccharomyces cerevisiae)
- Sequence (P36035 2-616): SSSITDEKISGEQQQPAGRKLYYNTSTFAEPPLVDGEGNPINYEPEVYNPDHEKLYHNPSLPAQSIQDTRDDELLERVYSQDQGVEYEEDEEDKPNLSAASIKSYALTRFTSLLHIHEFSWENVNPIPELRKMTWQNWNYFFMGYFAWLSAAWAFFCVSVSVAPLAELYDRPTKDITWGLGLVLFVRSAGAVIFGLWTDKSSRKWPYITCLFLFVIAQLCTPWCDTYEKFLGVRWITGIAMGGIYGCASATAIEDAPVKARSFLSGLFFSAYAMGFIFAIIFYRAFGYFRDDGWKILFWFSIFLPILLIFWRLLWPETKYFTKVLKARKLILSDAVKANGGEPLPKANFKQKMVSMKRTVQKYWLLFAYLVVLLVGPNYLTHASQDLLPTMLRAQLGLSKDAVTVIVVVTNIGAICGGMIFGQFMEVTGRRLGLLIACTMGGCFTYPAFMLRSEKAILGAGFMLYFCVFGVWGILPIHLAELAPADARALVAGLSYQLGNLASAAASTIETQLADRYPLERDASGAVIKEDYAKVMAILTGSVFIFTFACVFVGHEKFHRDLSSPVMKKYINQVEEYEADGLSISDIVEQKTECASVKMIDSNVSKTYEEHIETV
- Experimental details: […]-lactate uptake in Jen1p-overexpressing yeast
Reported endpoint: pKi
In plain terms, pKi is the concentration in mol/L turned into minus its base-10 logarithm.

CC(O)C(=O)O (stereo not shown) [lactate] yielded pKi of 3.05
